Data origin, for the record: a melting point compilation (Tetko et al.; mined from patent text by program, amines drawn as free bases though some values may be those of a salt)

melting point listing for selected molecules.

Recorded melting point of CC12CC(O)C3c4cc(O)ccc4CCC3C1CCC2O (stereo not given) , please.
229 to 232 °C

Recorded melting point of CC1(c2ccc(OCc3ccccc3)c(Br)c2)C(=O)Nc2cc(Cl)cc(Cl)c2C1=O (stereo not given) , please.
189 to 190 °C

Recorded melting point of COC(=O)C(C)Oc1ccc(Oc2ncc(Cl)cc2F)cc1 (stereo not given) , please.
58 to 59 °C

Recorded melting point of N#Cc1c(Cl)c(Cl)c(NCCN)c(Cl)c1Cl , please.
140 to 144 °C

Recorded melting point of CN1CCN(c2ccc(Nc3cc(-c4cccc(N5Cc6cc(C(C)(C)C)ccc6C5=O)c4CO)cn(C)c3=O)nn2)CC1 , please.
171 to 172 °C

Recorded melting point of O=C1CCCN(C(=O)c2ccccc2)C(=O)CCc2cc(Cl)ccc21 , please.
129 to 131 °C

Recorded melting point of COc1ccc(C(=O)/C(=C\c2ccccc2)C(=O)OC(C)(C)C)c(O)c1 , please.
105 to 107 °C

Recorded melting point of CS(=O)(=O)c1ccc(-c2[nH]c3ccc(Cl)cc3c2-c2cccc(Cl)c2)cc1 , please.
254 to 257 °C

Recorded melting point of Clc1ccc2c(C3CCNCC3)c[nH]c2c1Cl , please.
254 to 257 °C

Recorded melting point of COc1ccc(C(=O)c2ccc(OCc3nc(-c4ccccc4)oc3C)cc2)c(OC(F)(F)C(=O)O)c1 , please.
166 to 167 °C

New cases:
Recorded melting point of CCCOC(=O)c1ccc2c3cccc4cccc(c5ccc(C(=O)OCCC)c1c25)c43 , please.
253 °C

Recorded melting point of FCc1cccc(C#CCCc2ccc3ccccc3n2)n1 , please.
70.2 to 74.3 °C

Recorded melting point of CCCCN1CCC(COC(=O)c2cc(Cl)c(N)cc2OC)C(O)C1 (stereo not given) , please.
121 °C

Recorded melting point of CCCCCCCCOc1cnc(-c2ccc(OC(=O)[C@H]3CCCO3)cc2)nc1 , please.
90 °C

Recorded melting point of NC1=C2C=NN=C2N(c2ccc([N+](=O)[O-])cc2)CN1c1ccccc1 , please.
348 to 349 °C

Recorded melting point of Cc1c(Cl)cccc1N1CCN(CCc2nn(Cc3c[nH]cn3)c3cc4c(cc23)OCO4)CC1 , please.
176 to 177 °C

Recorded melting point of Cc1ncc(CNC(=O)c2nc3n(c(=O)c2O)CCOC3(C)C)s1 , please.
245 °C

Recorded melting point of CCOC(=O)CCCSc1nnc(S)s1 , please.
107 to 108 °C

Recorded melting point of CC(C)NCC(O)COc1cccc2c1C(=Cc1ccccc1)C(=O)N2 (stereo not given) , please.
163 to 165 °C

Recorded melting point of O=C(OCc1ccccc1)ON1C(=O)CC2(CCN(C(=O)OCc3ccccc3)CC2)C1=O , please.
114 °C

====

melting point listing for selected compounds.

Solved cases below.
Recorded melting point of CCOC(=O)C1=C(C)NC(C)=C(C(=O)OCC)C1c1ccc(OC(C)(C)C(=O)OCC)cc1 , please.
215 °C

Recorded melting point of Cc1c(-c2ccncc2)[nH]c(-c2ccncc2)c1C(=O)OC(C)C , please.
218 to 221 °C

Recorded melting point of O=C1COc2ccc(-c3cccnc3-c3ccccc3)cc2N1 , please.
176 to 178 °C

Recorded melting point of CCN(CC)C(=O)c1ccc(Cl)c(C2(C)C(=O)N(Cc3ccc(OC)cc3OC)c3ccccc32)c1 (stereo not given) , please.
172 °C

Recorded melting point of CC(C)(NCC(F)(F)CN)C(CCn1ccnc1[N+](=O)[O-])=NO , please.
112 to 114 °C

New cases:
Recorded melting point of C=CC(=O)c1c(-c2ccccc2)[nH]c2ccccc12 , please.
145 to 146 °C

Recorded melting point of S=c1ncn(-c2ccc(Cl)cc2)[nH]1 , please.
222 to 224 °C

Recorded melting point of CC(N)CC(=O)Nc1c(OCC(F)(F)F)cccc1-c1ccccn1 (stereo not given) , please.
135 to 137 °C

Recorded melting point of c1ccc(-c2nn(CCCCCCCCc3nn[nH]n3)c(-c3ccccc3)c2-c2ccccc2)cc1 , please.
158 to 160 °C

Recorded melting point of CCOC(=O)C(=O)CC(=O)c1cn(Cc2ccccc2F)c2cc(Cl)ccc2c1=O , please.
173 to 175 °C
